Data provenance: the supplement of paper PMC7125110

B1: glmS ribozyme (parent)
chain: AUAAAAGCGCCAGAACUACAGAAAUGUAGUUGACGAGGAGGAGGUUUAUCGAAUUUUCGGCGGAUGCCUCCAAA

Variants of: B1
Assay remarks: kcat; higher = faster cleavage; RNA array
Condition info: with glucosamine-6-phosphate
Fewer inactive variants are shown than the library holds.
Response key: 1 (yes) means kcat >= 0.0001 s⁻¹; 0 (no) means kcat < 0.0001 s⁻¹.

Known results for variants:
>  <Sequence variant>
A48G C71A

>  <Cat>
0 (no)

$$$$
>  <Sequence variant>
U31A C67G

>  <Cat>
1 (yes)

$$$$
>  <Sequence variant>
C16G G40A

>  <Cat>
1 (yes)

$$$$
>  <Sequence variant>
C16A U69G

>  <Cat>
0 (no)

$$$$
>  <Sequence variant>
U45C C71A

>  <Cat>
1 (yes)

$$$$

Ask: Identify whether the reported kcat of the following variant is 0.0001 s⁻¹ or greater: A14G U30C
Reply: 1 (yes)
